Each recorded value in this set is attributed to patent US12037344B2.

study-target: TLR7 (Homo sapiens, UniProt Q9NYK1)
Construct: human HEK-Blue cells co-expressing a TLR7 or TLR8 gene
Sequence (Q9NYK1 27-1049): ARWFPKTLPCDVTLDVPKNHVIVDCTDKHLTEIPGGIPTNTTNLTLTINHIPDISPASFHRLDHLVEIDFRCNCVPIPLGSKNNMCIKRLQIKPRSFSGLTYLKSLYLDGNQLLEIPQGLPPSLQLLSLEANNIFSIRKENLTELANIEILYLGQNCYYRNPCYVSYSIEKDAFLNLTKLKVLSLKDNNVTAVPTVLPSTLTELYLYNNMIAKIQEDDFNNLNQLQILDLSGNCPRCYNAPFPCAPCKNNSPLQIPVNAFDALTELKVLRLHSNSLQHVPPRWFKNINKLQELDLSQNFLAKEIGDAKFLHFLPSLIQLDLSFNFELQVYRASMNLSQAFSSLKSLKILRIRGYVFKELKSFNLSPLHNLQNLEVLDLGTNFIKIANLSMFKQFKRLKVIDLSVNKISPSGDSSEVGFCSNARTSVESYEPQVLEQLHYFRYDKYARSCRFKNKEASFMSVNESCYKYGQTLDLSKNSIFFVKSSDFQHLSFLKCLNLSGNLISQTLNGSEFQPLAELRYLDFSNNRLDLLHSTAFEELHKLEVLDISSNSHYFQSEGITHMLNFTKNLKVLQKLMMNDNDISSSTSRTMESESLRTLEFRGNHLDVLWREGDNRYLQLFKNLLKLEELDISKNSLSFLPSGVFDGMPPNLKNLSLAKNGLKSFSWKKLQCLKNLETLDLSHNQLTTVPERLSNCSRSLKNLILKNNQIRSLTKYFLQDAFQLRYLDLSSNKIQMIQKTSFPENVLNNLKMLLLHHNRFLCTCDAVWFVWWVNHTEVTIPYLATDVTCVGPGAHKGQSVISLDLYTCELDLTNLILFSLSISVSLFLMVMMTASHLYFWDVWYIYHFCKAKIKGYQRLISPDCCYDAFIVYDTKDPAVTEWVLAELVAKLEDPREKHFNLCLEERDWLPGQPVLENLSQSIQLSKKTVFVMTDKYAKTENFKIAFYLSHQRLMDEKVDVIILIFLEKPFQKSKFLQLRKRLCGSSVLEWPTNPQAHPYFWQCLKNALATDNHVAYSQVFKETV
measurement-protocol: In vitro human TLR7 binding reporter assay (HEK-Blue, NF-kB/AP1-inducible SEAP)
Type: cell-based
particulars: activity range class, read-out: TLR7 Agonist EC50
Exercise: for every item that follows, state its recorded EC50.

Form: Entry = Nc1nc2cc(-c3cc[nH]n3)ccc2c2cn(CCCOc3ccccc3)nc12 | System = TLR7 (Homo sapiens, UniProt Q9NYK1) | EC50 = ____
20 to 100 µM

Form: Entry = CN(C)CCn1cc2c(n1)c(N)nc1cc(-c3cc[nH]n3)ccc12 | System = TLR7 (Homo sapiens, UniProt Q9NYK1) | EC50 = ____
20 to 100 µM

Form: Entry = Nc1nc2cc(-c3cc[nH]n3)ccc2c2nn(C[C@H](O)CO)cc12 | System = TLR7 (Homo sapiens, UniProt Q9NYK1) | EC50 = ____
> 100 µM

Form: Entry = COC1CN(CCn2cc3c(N)nc4cc(-c5ccn[nH]5)ccc4c3n2)C1 | System = TLR7 (Homo sapiens, UniProt Q9NYK1) | EC50 = ____
> 100 µM

Form: Entry = Nc1nc2cc(-c3cc[nH]n3)ccc2c2nn(CCCN3CCOCC3)cc12 | System = TLR7 (Homo sapiens, UniProt Q9NYK1) | EC50 = ____
> 100 µM

Form: Entry = CN(CCn1cc2c(n1)c(N)nc1cc(-c3cc[nH]n3)ccc12)Cc1ccccc1 | System = TLR7 (Homo sapiens, UniProt Q9NYK1) | EC50 = ____
> 100 µM

Form: Entry = Nc1nc2cc(-c3cc[nH]n3)ccc2c2cn(CCNC(=O)COCC(F)(F)F)nc12 | System = TLR7 (Homo sapiens, UniProt Q9NYK1) | EC50 = ____
> 100 µM

----------
System: THP-1 cells
measurement-protocol: Measurement of IL-1β production, hTRF protocol (second alternative procedure), THP-1 cells
Assay type: cell-based, human
particulars: Homo sapiens, THP-1, IL-1β production, human; read-out: NLRP3 hILIB EC50
Method: Measurement of IL-1β Production—hTRF Protocol (Second Alternative Procedure) Serial dilutions of compounds in DMSO were added to low volume 384 well plates at 100 nl/well using an ECHO 550 acoustic dispenser (Labcyte) to achieve final starting concentration of 10 μM in assay. […] After the 2 hour incubation, the cell plates were spun in the centrifuge for 5 minutes at 1200 rpm. […] The plates were then read on the Perkin Elmer EnVision at 665/615 nm using the hTRF laser.
property-name: EC50 (nM)
Just the number in nM, nothing appended.

Field request: EC50 | item: Nc1nc2cc(-c3cc[nH]n3)ccc2c2cn(CCCOc3ccccc3)nc12
430

Field request: EC50 | item: N#CC1(C(=O)NCCn2cc3c(n2)c(N)nc2cc(-c4cc[nH]n4)ccc23)CC1
1270

Field request: EC50 | item: Nc1nc2cc(-c3cc[nH]n3)ccc2c2cn(CCCOc3cccnc3)nc12
570

Field request: EC50 | item: Nc1nc2cc(-c3cc[nH]n3)ccc2c2cn(CCN3Cc4ccc(F)cc4C3=O)nc12
650

Field request: EC50 | item: Nc1nc2cc(-c3cc[nH]n3)ccc2c2cn(CCCn3ccccc3=O)nc12
16800

Field request: EC50 | item: Nc1nc2cc(-c3cc[nH]n3)ccc2c2nn(C[C@@H]3CCC(=O)N3)cc12
880

Field request: EC50 | item: Nc1nc2cc(-c3cc[nH]n3)ccc2c2cn(CCNC(=O)C3CCOCC3)nc12
23300

Field request: EC50 | item: Nc1nc2cc(-c3cc[nH]n3)ccc2c2nn(C3COC3)cc12
460

Field request: EC50 | item: Nc1nc2cc(-c3cccs3)ccc2c2cn(CCNC(=O)c3ccc(F)cn3)nc12
700

----------
System: THP-1 cells
measurement-protocol: Measurement of IL-1β production, hTRF protocol (second alternative procedure), THP-1 cells
Format: cell-based, human
particulars: Homo sapiens, THP-1, IL-1β production, human; read-out: NLRP3 hILIB EC50
// returns not fulfilled unless EC50 is strictly below 800 nM, in which case fulfilled

Report whether reported EC50 is lower than 800 nM (strictly) for Nc1nc2cc(-c3cc[nH]n3)ccc2c2nn(C3CCCCC3O)cc12 (stereo not drawn) [Example 317]
not fulfilled

Report whether reported EC50 is lower than 800 nM (strictly) for Nc1nc2cc(-c3cc[nH]n3)ccc2c2cn(CCNC(=O)c3ccc(C(F)(F)F)cn3)nc12 [Example 62]
fulfilled

Report whether reported EC50 is lower than 800 nM (strictly) for COC1CCCN(CCn2cc3c(N)nc4cc(-c5ccn[nH]5)ccc4c3n2)C1 (stereo not drawn) [Example 265]
not fulfilled

Report whether reported EC50 is lower than 800 nM (strictly) for COC1CCN(CCn2cc3c(N)nc4cc(-c5ccn[nH]5)ccc4c3n2)C1 (stereo not drawn) [Example 266]
not fulfilled

Report whether reported EC50 is lower than 800 nM (strictly) for CC(C)(O)Cn1cc2c(N)nc3cc(-c4ccn[nH]4)ccc3c2n1 [Example 283]
fulfilled

Report whether reported EC50 is lower than 800 nM (strictly) for Nc1nc2cc(-c3cc[nH]n3)ccc2c2c1cnn2C1CCOC1 (stereo not drawn) [Example 240]
fulfilled

Report whether reported EC50 is lower than 800 nM (strictly) for CCCn1cc2c(N)nc3cc(-c4cc[nH]n4)ccc3c2n1 [Example 220]
fulfilled

Report whether reported EC50 is lower than 800 nM (strictly) for CC(Cn1cc2c(N)nc3cc(-c4ccn[nH]4)ccc3c2n1)NC(=O)c1ccc(F)cn1 (stereo not drawn) [Example 294]
fulfilled

----------
Test system: THP-1 cells
measurement-protocol: Measurement of IL-1β production, hTRF protocol (second alternative procedure), THP-1 cells
Type: cell-based, human
particulars: Homo sapiens, THP-1, IL-1β production, human; read-out: NLRP3 hILIB EC50
Exercise: for every item that follows, state its recorded EC50.
Just the number in nM, nothing appended.

Field request: EC50 | item: CC(=O)N[C@@H](CO)Cn1cc2c(N)nc3cc(-c4cc[nH]n4)ccc3c2n1
890

Field request: EC50 | item: Nc1nc2cc(-c3ccn[nH]3)ccc2c2sc(CCNC(=O)c3ccccc3)nc12
980

Field request: EC50 | item: Nc1nc2cc(-c3cccs3)ccc2c2cn(CCNC(=O)c3ccccn3)nc12
610

Field request: EC50 | item: Cc1ccc(C(=O)NCCn2cc3c(n2)c(N)nc2cc(-c4cc[nH]n4)ccc23)cc1
800

Field request: EC50 | item: Nc1nc2cc(-c3cc[nH]n3)ccc2c2cn(CCCOc3ccc(F)cc3)nc12
560

Field request: EC50 | item: CC(C)OCC(O)Cn1cc2c(N)nc3cc(-c4cc[nH]n4)ccc3c2n1 (centres unmarked)
1940

Field request: EC50 | item: CC(C)C(=O)NCCn1cc2c(n1)c(N)nc1cc(-c3cc[nH]n3)ccc12
8850

Field request: EC50 | item: Nc1nc2cc(-c3cc[nH]n3)ccc2c2cn(CCNC(=O)COCC(F)(F)F)nc12
1440

Field request: EC50 | item: Nc1nc2cc(-c3cc[nH]n3)ccc2c2cn(CCN3CC4COCC4C3)nc12 (centres unmarked)
770

Field request: EC50 | item: Nc1nc2cc(-c3cc[nH]n3)ccc2c2cn(CCN3Cc4cc(Cl)ccc4C3=O)nc12
130

Field request: EC50 | item: Nc1nc2cc(-c3cc[nH]n3)ccc2c2cn(CCN3Cc4ccccc4C3=O)nc12
410
